Source listed as ChEMBL document CHEMBL5143550.

tested on: Enterococcus faecalis; test: Antibacterial activity against VanB-resistant Enterococcus faecalis ATCC 51299 assessed as inhibition of bacterial growth in BHIG medium incubated for 24 hrs by resazurin assay; format: functional
Task for the reader: assign each of the following compounds its reported inhibition (INH).
Answers are plain numbers, in %.

>>> recorded_result("CN[C@H](CC(C)C)C(=O)N[C@H]1C(=O)N[C@@H](CC(N)=O)C(=O)N[C@H]2C(=O)N[C@H]3C(=O)N[C@H](C(=O)N[C@H](C(=O)NCCSSCCNC(=O)CCSC(c4ccccc4)(c4ccccc4)c4ccccc4)c4cc(O)cc(O)c4-c4cc3ccc4O)[C@H](O)c3ccc(c(Cl)c3)Oc3cc2cc(c3O[C@@H]2O[C@H](CO)[C@@H](O)[C@H](O)[C@H]2O[C@H]2C[C@](C)(N)[C@H](O)[C@H](C)O2)Oc2ccc(cc2Cl)[C@H]1O")
100
>>> recorded_result("CN[C@H](CC(C)C)C(=O)N[C@H]1C(=O)N[C@@H](CC(N)=O)C(=O)N[C@H]2C(=O)N[C@H]3C(=O)N[C@H](C(=O)N[C@H](C(=O)NCCCS)c4cc(O)cc(O)c4-c4cc3ccc4O)[C@H](O)c3ccc(c(Cl)c3)Oc3cc2cc(c3O[C@@H]2O[C@H](CO)[C@@H](O)[C@H](O)[C@H]2O[C@H]2C[C@](C)(N)[C@H](O)[C@H](C)O2)Oc2ccc(cc2Cl)[C@H]1O")
100

Data request, read-out inhibition (INH), for "CCSSCCNC(=O)[C@H]1NC(=O)[C@H]2NC(=O)[C@H](NC(=O)[C@@H]3NC(=O)[C@H](CC(N)=O)NC(=O)[C@H](NC(=O)[C@@H](CC(C)C)NC)[C@H](O)c4ccc(c(Cl)c4)Oc4cc3cc(c4O[C@@H]3O[C@H](CO)[C@@H](O)[C@H](O)[C@H]3O[C@H]3C[C@](C)(N)[C@H](O)[C@H](C)O3)Oc3ccc(cc3Cl)[C@H]2O)c2ccc(O)c(c2)-c2c(O)cc(O)cc21"
100

====

test system: Enterococcus faecium; test: Antibacterial activity against VanA-resistant Enterococcus faecium MMX0485 assessed as inhibition of bacterial growth by standard broth microdilution susceptibility method; type: functional
Provide the reported MIC of each item.
One number for each entry, in µg/mL.

Solved cases below.
>>> recorded_result("CN[C@H](CC(C)C)C(=O)N[C@H]1C(=O)N[C@@H](CC(N)=O)C(=O)N[C@H]2C(=O)N[C@H]3C(=O)N[C@H](C(=O)N[C@H](C(=O)NCCSSCCCCCCCCCCC[N+](C)(C)C)c4cc(O)cc(O)c4-c4cc3ccc4O)[C@H](O)c3ccc(c(Cl)c3)Oc3cc2cc(c3O[C@@H]2O[C@H](CO)[C@@H](O)[C@H](O)[C@H]2O[C@H]2C[C@](C)(N)[C@H](O)[C@H](C)O2)Oc2ccc(cc2Cl)[C@H]1O")
16
>>> recorded_result("CN[C@H](CC(C)C)C(=O)N[C@H]1C(=O)N[C@@H](CC(N)=O)C(=O)N[C@H]2C(=O)N[C@H]3C(=O)N[C@H](C(=O)N[C@H](C(=O)NCCSSCCCCC[N+](C)(C)C)c4cc(O)cc(O)c4-c4cc3ccc4O)[C@H](O)c3ccc(c(Cl)c3)Oc3cc2cc(c3O[C@@H]2O[C@H](CO)[C@@H](O)[C@H](O)[C@H]2O[C@H]2C[C@](C)(N)[C@H](O)[C@H](C)O2)Oc2ccc(cc2Cl)[C@H]1O")
16

Now consider the entry below.
Can you look up the measured MIC of "CN[C@H](CC(C)C)C(=O)N[C@H]1C(=O)N[C@@H](CC(N)=O)C(=O)N[C@H]2C(=O)N[C@H]3C(=O)N[C@H](C(=O)N[C@H](C(=O)NCCSSc4ccccn4)c4cc(O)cc(O)c4-c4cc3ccc4O)[C@H](O)c3ccc(c(Cl)c3)Oc3cc2cc(c3O[C@@H]2O[C@H](CO)[C@@H](O)[C@H](O)[C@H]2O[C@H]2C[C@](C)(N)[C@H](O)[C@H](C)O2)Oc2ccc(cc2Cl)[C@H]1O" for me?
8

====

Provide the reported Ratio of each item.
system: Enterococcus faecium; assay: Potency index, ratio of vancomycin MIC to test compound MIC for antibacterial activity against VanA-resistant Enterococcus faecium MMX0485 assessed as inhibition of bacterial growth by standard broth microdilution susceptibility method; format: functional
Answers are plain numbers.

Below, each entry is followed by its recorded Ratio result.
>>> recorded_result("CN[C@H](CC(C)C)C(=O)N[C@H]1C(=O)N[C@@H](CC(N)=O)C(=O)N[C@H]2C(=O)N[C@H]3C(=O)N[C@H](C(=O)N[C@H](C(=O)NCCSSCC[N+](C)(C)C)c4cc(O)cc(O)c4-c4cc3ccc4O)[C@H](O)c3ccc(c(Cl)c3)Oc3cc2cc(c3O[C@@H]2O[C@H](CO)[C@@H](O)[C@H](O)[C@H]2O[C@H]2C[C@](C)(N)[C@H](O)[C@H](C)O2)Oc2ccc(cc2Cl)[C@H]1O")
8
>>> recorded_result("CN[C@H](CC(C)C)C(=O)N[C@H]1C(=O)N[C@@H](CC(N)=O)C(=O)N[C@H]2C(=O)N[C@H]3C(=O)N[C@H](C(=O)N[C@H](C(=O)NCCSSCCCCCCCCCCC[N+](C)(C)C)c4cc(O)cc(O)c4-c4cc3ccc4O)[C@H](O)c3ccc(c(Cl)c3)Oc3cc2cc(c3O[C@@H]2O[C@H](CO)[C@@H](O)[C@H](O)[C@H]2O[C@H]2C[C@](C)(N)[C@H](O)[C@H](C)O2)Oc2ccc(cc2Cl)[C@H]1O")
8

Next compound, please.
Fill in: Ratio of "CCCCCCCCCCCSSCCNC(=O)[C@H]1NC(=O)[C@H]2NC(=O)[C@H](NC(=O)[C@@H]3NC(=O)[C@H](CC(N)=O)NC(=O)[C@H](NC(=O)[C@@H](CC(C)C)NC)[C@H](O)c4ccc(c(Cl)c4)Oc4cc3cc(c4O[C@@H]3O[C@H](CO)[C@@H](O)[C@H](O)[C@H]3O[C@H]3C[C@](C)(N)[C@H](O)[C@H](C)O3)Oc3ccc(cc3Cl)[C@H]2O)c2ccc(O)c(c2)-c2c(O)cc(O)cc21" is ___
16

====

I'd appreciate it if you could supply inhibition (INH) values for the items below.
tested on: Enterococcus faecalis; test: Antibacterial activity against VanB-resistant Enterococcus faecalis ATCC 51299 assessed as inhibition of bacterial growth in BHIG medium incubated for 24 hrs by resazurin assay; type: functional
Numbers only, in %.

In the examples that follow, each entry is paired with its recorded inhibition (INH).
>>> recorded_result("CN[C@H](CC(C)C)C(=O)N[C@H]1C(=O)N[C@@H](CC(N)=O)C(=O)N[C@H]2C(=O)N[C@H]3C(=O)N[C@H](C(=O)N[C@H](C(=O)NCCCCCCCCS)c4cc(O)cc(O)c4-c4cc3ccc4O)[C@H](O)c3ccc(c(Cl)c3)Oc3cc2cc(c3O[C@@H]2O[C@H](CO)[C@@H](O)[C@H](O)[C@H]2O[C@H]2C[C@](C)(N)[C@H](O)[C@H](C)O2)Oc2ccc(cc2Cl)[C@H]1O")
100
>>> recorded_result("CN[C@H](CC(C)C)C(=O)N[C@H]1C(=O)N[C@@H](CC(N)=O)C(=O)N[C@H]2C(=O)N[C@H]3C(=O)N[C@H](C(=O)N[C@H](C(=O)NCCSSCC[N+](C)(C)C)c4cc(O)cc(O)c4-c4cc3ccc4O)[C@H](O)c3ccc(c(Cl)c3)Oc3cc2cc(c3O[C@@H]2O[C@H](CO)[C@@H](O)[C@H](O)[C@H]2O[C@H]2C[C@](C)(N)[C@H](O)[C@H](C)O2)Oc2ccc(cc2Cl)[C@H]1O")
100
>>> recorded_result("CN[C@H](CC(C)C)C(=O)N[C@H]1C(=O)N[C@@H](CC(N)=O)C(=O)N[C@H]2C(=O)N[C@H]3C(=O)N[C@H](C(=O)N[C@H](C(=O)NCCCCCS)c4cc(O)cc(O)c4-c4cc3ccc4O)[C@H](O)c3ccc(c(Cl)c3)Oc3cc2cc(c3O[C@@H]2O[C@H](CO)[C@@H](O)[C@H](O)[C@H]2O[C@H]2C[C@](C)(N)[C@H](O)[C@H](C)O2)Oc2ccc(cc2Cl)[C@H]1O")
100
>>> recorded_result("CN[C@H](CC(C)C)C(=O)N[C@H]1C(=O)N[C@@H](CC(N)=O)C(=O)N[C@H]2C(=O)N[C@H]3C(=O)N[C@H](C(=O)N[C@H](C(=O)NCCSSCCCCCCCCCCC[N+](C)(C)C)c4cc(O)cc(O)c4-c4cc3ccc4O)[C@H](O)c3ccc(c(Cl)c3)Oc3cc2cc(c3O[C@@H]2O[C@H](CO)[C@@H](O)[C@H](O)[C@H]2O[C@H]2C[C@](C)(N)[C@H](O)[C@H](C)O2)Oc2ccc(cc2Cl)[C@H]1O")
98

I'm curious: which inhibition (INH) was measured for "CCCCCCCCCCCSSCCNC(=O)[C@H]1NC(=O)[C@H]2NC(=O)[C@H](NC(=O)[C@@H]3NC(=O)[C@H](CC(N)=O)NC(=O)[C@H](NC(=O)[C@@H](CC(C)C)NC)[C@H](O)c4ccc(c(Cl)c4)Oc4cc3cc(c4O[C@@H]3O[C@H](CO)[C@@H](O)[C@H](O)[C@H]3O[C@H]3C[C@](C)(N)[C@H](O)[C@H](C)O3)Oc3ccc(cc3Cl)[C@H]2O)c2ccc(O)c(c2)-c2c(O)cc(O)cc21" tested on Enterococcus faecalis?
99
